Target: C4b (UniProt P0C0L4)
Sequence (P0C0L4 757-1446 limits assumed, chain 1 of 3): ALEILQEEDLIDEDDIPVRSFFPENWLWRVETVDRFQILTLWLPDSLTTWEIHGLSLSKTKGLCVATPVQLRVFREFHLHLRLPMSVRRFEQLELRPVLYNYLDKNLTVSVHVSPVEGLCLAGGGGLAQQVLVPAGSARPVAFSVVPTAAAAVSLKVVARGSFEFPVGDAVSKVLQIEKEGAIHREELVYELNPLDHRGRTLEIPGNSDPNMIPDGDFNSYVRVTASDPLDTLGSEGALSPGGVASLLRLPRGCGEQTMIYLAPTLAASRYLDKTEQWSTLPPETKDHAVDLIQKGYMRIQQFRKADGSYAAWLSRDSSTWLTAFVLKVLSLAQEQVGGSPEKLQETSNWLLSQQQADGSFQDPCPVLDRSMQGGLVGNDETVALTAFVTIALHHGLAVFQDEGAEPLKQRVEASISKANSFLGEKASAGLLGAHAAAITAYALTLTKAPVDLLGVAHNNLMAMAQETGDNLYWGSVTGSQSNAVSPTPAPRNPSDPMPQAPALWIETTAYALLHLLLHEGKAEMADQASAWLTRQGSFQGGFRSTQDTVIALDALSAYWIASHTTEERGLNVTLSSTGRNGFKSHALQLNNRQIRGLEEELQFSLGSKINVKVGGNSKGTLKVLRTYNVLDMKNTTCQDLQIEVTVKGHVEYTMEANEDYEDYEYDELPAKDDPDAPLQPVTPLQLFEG
Sequence (P0C0L4 20-675 limits assumed, chain 2 of 3): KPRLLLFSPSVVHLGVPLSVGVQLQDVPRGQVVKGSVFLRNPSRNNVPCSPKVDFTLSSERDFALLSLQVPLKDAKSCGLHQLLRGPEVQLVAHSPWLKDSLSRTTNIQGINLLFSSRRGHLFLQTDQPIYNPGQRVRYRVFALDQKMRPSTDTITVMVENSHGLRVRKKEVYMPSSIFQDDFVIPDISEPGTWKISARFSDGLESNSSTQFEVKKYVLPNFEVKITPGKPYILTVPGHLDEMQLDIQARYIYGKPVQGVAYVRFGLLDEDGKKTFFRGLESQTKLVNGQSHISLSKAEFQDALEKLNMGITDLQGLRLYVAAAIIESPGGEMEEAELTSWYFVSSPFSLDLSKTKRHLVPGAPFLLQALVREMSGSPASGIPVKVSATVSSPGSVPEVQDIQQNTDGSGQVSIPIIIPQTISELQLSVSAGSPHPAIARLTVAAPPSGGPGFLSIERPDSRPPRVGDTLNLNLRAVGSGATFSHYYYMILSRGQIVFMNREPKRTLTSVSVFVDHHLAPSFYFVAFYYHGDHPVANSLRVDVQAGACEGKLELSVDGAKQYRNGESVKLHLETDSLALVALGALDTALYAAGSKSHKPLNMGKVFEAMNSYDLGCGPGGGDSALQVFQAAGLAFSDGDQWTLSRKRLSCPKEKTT
Sequence (P0C0L4 1454-1744 limits assumed, chain 3 of 3): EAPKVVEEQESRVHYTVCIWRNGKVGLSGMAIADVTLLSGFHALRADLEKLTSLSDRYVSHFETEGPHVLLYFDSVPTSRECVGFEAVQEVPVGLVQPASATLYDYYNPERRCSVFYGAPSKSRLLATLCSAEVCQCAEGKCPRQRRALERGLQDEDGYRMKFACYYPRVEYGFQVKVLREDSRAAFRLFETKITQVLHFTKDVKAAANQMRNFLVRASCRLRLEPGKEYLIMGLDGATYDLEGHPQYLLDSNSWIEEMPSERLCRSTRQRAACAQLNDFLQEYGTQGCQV
Assay: cell-based or functional assay
Measurement Label: Relative C4b CFA
Lab note: jot down the number only; don't add units.

Binder: D2D3M3M4 (Multi-5) or DCP (decay-cofactor protein) (protein) CEVPTRLNSASLKQPYITQNYFPVGTVVEYECRPGYRREPSLSPKLTCLQNLKWSTAVEFCKKKSCPNPGEIRNGQIDVPGGILFGATISFSCNTGYKLIGSTSSFCLISGSSVQWSDKLPICEKVLCTPPPKIKNGKHTFSEVEVFEYLDAVTYSCDPAPGPDPFSLIGESTIYCGDNSVWSRAAPECKVVKCRFPVVENGKQISGFGKKFYYKATVMFECDKGFYLDGSDTIVCDSNSTWDPPVPKCLKVL
Assay Value: 3
//
Binder: D2D3M3M4 (P216K) (protein) CEVPTRLNSASLKQPYITQNYFPVGTVVEYECRPGYRREPSLSPKLTCLQNLKWSTAVEFCKKKSCPNPGEIRNGQIDVPGGILFGATISFSCNTGYKLFGSTSSFCLISGSSVQWSDKLPECREIYCTPPPKIKNGKHTFSEVEVFEYLDAVTYSCDPAPGPDPFSLIGESTIYCGDNSVWSRAAPECKVVKCRFPVVENGKQISGFGKKFYYKATVMFECDKGFYLDGSDTIVCDSNSTWDPPVPKCLKVL
Assay Value: 5
//
Binder: D2D3M3M4 (Multi-1) (protein) CEVPTRLNSASLKQPYITQNYFPVGTVVEYECRPGYRREPSLSPKLTCLQNLKWSTAVEFCKKKSCPNPGEIRNGQIDVPGGILFGATISFSCNTGYKLFGSTSSFCLISGSSVQWSDPLPICEKVLCTPPPKIKNGKHTFSEVEVFEYLDAVTYSCDPAPGPDPFSLIGESTIYCGDNSVWSRAAPECKVVKCRFPVVENGKQISGFGKKFYYKATVMFECDKGFYLDGSDTIVCDSNSTWDPPVPKCLKVL
Assay Value: 1.07
//
Binder: D2D3M3M4 (L205K) (protein) CEVPTRLNSASLKQPYITQNYFPVGTVVEYECRPGYRREPSLSPKLTCLQNLKWSTAVEFCKKKSCPNPGEIRNGQIDVPGGILFGATISFSCNTGYKLFGSTSSFCKISGSSVQWSDPLPECREIYCTPPPKIKNGKHTFSEVEVFEYLDAVTYSCDPAPGPDPFSLIGESTIYCGDNSVWSRAAPECKVVKCRFPVVENGKQISGFGKKFYYKATVMFECDKGFYLDGSDTIVCDSNSTWDPPVPKCLKVL
Assay Value: 1.07

Query binder follows.
Q. Form field: reported Relative C4b CFA of D2D3M3M4 (S199K) (protein) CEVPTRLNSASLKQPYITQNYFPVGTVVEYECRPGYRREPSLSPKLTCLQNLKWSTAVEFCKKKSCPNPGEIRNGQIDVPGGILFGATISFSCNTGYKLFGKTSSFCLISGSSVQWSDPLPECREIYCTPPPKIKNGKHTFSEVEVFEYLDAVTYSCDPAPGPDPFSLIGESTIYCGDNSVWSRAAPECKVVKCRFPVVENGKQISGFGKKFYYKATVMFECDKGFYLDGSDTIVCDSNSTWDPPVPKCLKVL
A. 2.5

From: patent US20220195012A1
